Provide the recorded protein stability index for the entries that follow.
B1: TRIM63 (parent)
chain: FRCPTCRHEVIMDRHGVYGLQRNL

- Variants of: B1
- protocol: protein stability index of a GFP-peptide fusion (GPS, HEK-293T) (PSI 1-6); higher = more stable;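 note: lentivirally expressed fusions sorted by FACS into six bins by GFP to DsRed ratio, PSI derived from sequencing read proportions per bin multiplied by bin number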
- recorded_conditions: c terminus: a fixed tail appended
One number for each entry.

Use the examples below as a reference point.
>>> test_value("G19M")
1.98
>>> test_value("R22G")
1.98

Moving on to the next variant.
Recorded protein stability index (variant R14Y ): 1.95
